Each recorded value in this set is attributed to paper PMC6628712.

assaySystem: CYP26A1 (Homo sapiens, UniProt O43174)
assayOverview: Inhibition of CYP26A1-catalyzed tazarotenic acid sulfoxide formation
Assay type: biochemical
pIC50: −log10 of the molar value.
readoutName: pIC50

CCc1oc2ccccc2c1C(=O)c1cc(Br)c(O)c(Br)c1 [Benzbromarone]: 6.20

[a] CCOc1nc2cccc(C(=O)OC(C)OC(=O)OC3CCCCC3)c2n1Cc1ccc(-c2ccccc2-c2nnn[nH]2)cc1 (stereo not drawn) [Candesartan Cilexetil]
[b] C=C(c1ccc(C(=O)O)cc1)c1cc2c(cc1C)C(C)(C)CCC2(C)C [Bexarotene]
Decide: a or b , by lowest recorded pIC50. Returns: label corresponding to the selected item.
b

----------
assaySystem: CYP26A1 (Homo sapiens, UniProt O43174)
assayOverview: Spectral binding determination, CYP26A1
conditions: Ks,unb CYP26A1, Ks corrected for nonspecific binding
readoutName: pKd
Scale note: pKd = -log10(concentration in M).

Please give measured pKd of the following entry: Clc1ccccc1C(c1ccccc1)(c1ccccc1)n1ccnc1 [Clotrimazole]
7.88

----------
assaySystem: CYP26B1 (Homo sapiens, UniProt Q9NR63)
Sequence (Q9NR63 whole entry): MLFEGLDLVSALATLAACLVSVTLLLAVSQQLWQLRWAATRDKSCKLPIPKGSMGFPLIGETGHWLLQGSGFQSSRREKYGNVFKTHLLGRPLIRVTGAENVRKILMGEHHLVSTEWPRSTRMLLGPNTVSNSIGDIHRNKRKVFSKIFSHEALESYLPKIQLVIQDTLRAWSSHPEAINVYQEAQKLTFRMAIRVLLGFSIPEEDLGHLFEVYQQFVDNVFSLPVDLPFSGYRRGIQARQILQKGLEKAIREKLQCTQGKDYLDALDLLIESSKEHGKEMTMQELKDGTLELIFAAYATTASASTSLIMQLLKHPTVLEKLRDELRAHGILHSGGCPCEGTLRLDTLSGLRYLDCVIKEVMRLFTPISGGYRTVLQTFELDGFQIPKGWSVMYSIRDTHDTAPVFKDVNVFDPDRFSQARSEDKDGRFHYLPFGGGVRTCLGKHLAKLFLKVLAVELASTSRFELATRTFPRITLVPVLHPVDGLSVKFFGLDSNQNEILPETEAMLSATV
assayOverview: Inhibition of CYP26B1-catalyzed tazarotenic acid sulfoxide formation
Format: biochemical
conditions: read-out: CYP26B1 IC50, tazarotenic acid; recombinant CYP26B1; probe tazarotenic acid sulfoxide formation; ± standard error
readoutName: IC50 (µM)

C#C[C@]1(O)CC[C@H]2[C@@H]3CCc4cc(O)ccc4[C@H]3CC[C@@]21C: 6.73
CC1(C)CCC(C)(C)c2cc(NC(=O)c3ccc(C(=O)O)cc3)ccc21: 9.21

[a] Clc1cccc(C(c2ccc3[nH]cnc3c2)n2ccnc2)c1 (stereo not drawn)
[b] CC1(C)CCC(C)(C)c2cc(C3(c4ccc(C(=O)O)cc4)OCCO3)ccc21
[c] CC1(C)CCC(C)(C)c2cc(C#Cc3ccc(C(=O)O)cc3)ccc21
Ascending by IC50, please. Note for the reader: the ranking is given by listing the labels in the order requested.
a, c, b
(a: 0.01 µM, c: 3.45 µM, b: 6.86 µM)

----------
assaySystem: CYP26B1 (Homo sapiens, UniProt Q9NR63)
assayOverview: Inhibition of CYP26B1-catalyzed tazarotenic acid sulfoxide formation
Type: biochemical
conditions: CYP26B1 IC50, tazarotenic acid, recombinant CYP26B1; probe tazarotenic acid sulfoxide formation; ± standard error
readoutName: IC50 (µM)

// solved cases for IC50 follow
Clc1ccccc1C(c1ccccc1)(c1ccccc1)n1ccnc1 [Clotrimazole]: 0.05
CCOc1cc(CC(=O)N[C@@H](CC(C)C)c2ccccc2N2CCCCC2)ccc1C(=O)O [Repaglinide]: 0.61

[1] COc1cc(C(=O)NS(=O)(=O)c2ccccc2C)ccc1Cc1cn(C)c2ccc(NC(=O)OC3CCCC3)cc12 [Zafirlukast]
[2] CCOc1nc2cccc(C(=O)OC(C)OC(=O)OC3CCCCC3)c2n1Cc1ccc(-c2ccccc2-c2nnn[nH]2)cc1 (stereo not drawn) [Candesartan Cilexetil]
Between these two entries, 1 and 2 , state which has the higher IC50. Returns: label corresponding to the selected item.
1

[a] OC(Cn1cncn1)(Cn1cncn1)c1ccc(F)cc1F [Fluconazole]
[b] O=c1c(O)c(-c2ccc(O)c(O)c2)oc2cc(O)cc(O)c12 [Quercetin]
Decide: a or b , by lowest recorded IC50. Returns: label corresponding to the selected item.
a

[P] CCc1ccc(CCOc2ccc(CC3SC(=O)NC3=O)cc2)nc1 (stereo not drawn) [Pioglitazone]
[Q] CC(C)(O)c1ccccc1CC[C@@H](SCC1(CC(=O)O)CC1)c1cccc(/C=C/c2ccc3ccc(Cl)cc3n2)c1 [Montelukast]
[R] C=C(c1ccc(C(=O)O)cc1)c1cc2c(cc1C)C(C)(C)CCC2(C)C [Bexarotene]
[S] CC/C(=C(\c1ccccc1)c1ccc(OCCN(C)C)cc1)c1ccccc1 [Tamoxifen]
Ascending by IC50, please. Note for the reader: the ranking is given by listing the labels in the order requested.
Q, R, P, S

----------
assaySystem: CYP26A1 (Homo sapiens)
assayOverview: Inhibition of CYP26A1-catalyzed tazarotenic acid sulfoxide formation
Format: biochemical
conditions: IC50,unb CYP26A1, IC50 corrected for unbound fraction in the assay
readoutName: pIC50
Scale note: pIC50 = -log10(concentration in M).

Please give measured pIC50 of the following entry: Clc1ccccc1C(c1ccccc1)(c1ccccc1)n1ccnc1 [Clotrimazole]
7.79

----------
assaySystem: CYP26A1 (Homo sapiens)
Sequence (O43174 1-497): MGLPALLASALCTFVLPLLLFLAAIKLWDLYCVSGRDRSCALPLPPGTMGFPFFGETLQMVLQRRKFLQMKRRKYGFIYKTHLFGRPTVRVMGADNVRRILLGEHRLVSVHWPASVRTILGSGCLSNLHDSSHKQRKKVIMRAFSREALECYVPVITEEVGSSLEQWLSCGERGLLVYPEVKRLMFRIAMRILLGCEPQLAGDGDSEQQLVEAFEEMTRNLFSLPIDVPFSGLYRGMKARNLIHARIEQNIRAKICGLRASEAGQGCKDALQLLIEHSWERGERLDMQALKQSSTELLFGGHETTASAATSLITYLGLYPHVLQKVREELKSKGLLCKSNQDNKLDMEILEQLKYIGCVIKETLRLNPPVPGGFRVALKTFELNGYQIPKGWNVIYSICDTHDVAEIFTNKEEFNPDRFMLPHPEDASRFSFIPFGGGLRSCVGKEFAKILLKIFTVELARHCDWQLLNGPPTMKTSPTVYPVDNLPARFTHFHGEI
assayOverview: Inhibition of CYP26A1-catalyzed tazarotenic acid sulfoxide formation
Assay type: biochemical
conditions: read-out: CYP26A1 IC50, tazarotenic acid; recombinant CYP26A1; probe tazarotenic acid sulfoxide formation; ± standard error
readoutName: IC50 (µM)

[I] CC1(C)CCC(C)(C)c2cc(NC(=O)c3ccc(C(=O)O)cc3)ccc21
[II] CC1(C)CCC(C)(C)c2cc(C#Cc3ccc(C(=O)O)cc3)ccc21
Decide: I or II , by lowest recorded IC50. Returns: label corresponding to the selected item.
II

----------
conditions: human, in vivo
readoutName: Cmax,u (nM)

// solved cases for Cmax,u follow
O=c1c(O)c(-c2ccc(O)c(O)c2)oc2cc(O)cc(O)c12: 0.45
C#C[C@]1(O)CC[C@H]2[C@@H]3CCc4cc(O)ccc4[C@H]3CC[C@@]21C: 0.00085

[P] CCOc1nc2cccc(C(=O)O)c2n1Cc1ccc(-c2ccccc2-c2nnn[nH]2)cc1
[Q] OC(Cn1cncn1)(Cn1cncn1)c1ccc(F)cc1F
[R] CN(CCOc1ccc(CC2SC(=O)NC2=O)cc1)c1ccccn1 (centres unmarked)
Ascending by Cmax,u, please. Note for the reader: the ranking is given by listing the labels in the order requested.
P, R, Q

----------
conditions: human, in vivo
readoutName: Cmax,u (nM)

CCOc1cc(CC(=O)N[C@@H](CC(C)C)c2ccccc2N2CCCCC2)ccc1C(=O)O [Repaglinide]: 2.60
CC(C)c1nc(CN(C)C(=O)N[C@H](C(=O)N[C@@H](Cc2ccccc2)C[C@H](O)[C@H](Cc2ccccc2)NC(=O)OCc2cncs2)C(C)C)cs1 [Ritonavir]: 150
O=C(c1ccc(OCCN2CCCCC2)cc1)c1c(-c2ccc(O)cc2)sc2cc(O)ccc12 [Raloxifene]: 0.50
CC(C)(O)c1ccccc1CC[C@@H](SCC1(CC(=O)O)CC1)c1cccc(/C=C/c2ccc3ccc(Cl)cc3n2)c1 [Montelukast]: 8.90
COc1cc(C(=O)NS(=O)(=O)c2ccccc2C)ccc1Cc1cn(C)c2ccc(NC(=O)OC3CCCC3)cc12 [Zafirlukast]: 3.00

[P] CC/C(=C(\c1ccccc1)c1ccc(OCCN(C)C)cc1)c1ccccc1 [Tamoxifen]
[Q] CCC(C)n1ncn(-c2ccc(N3CCN(c4ccc(OCC5COC(Cn6cncn6)(c6ccc(Cl)cc6Cl)O5)cc4)CC3)cc2)c1=O (stereo not shown) [Itraconazole]
Between these two entries, P and Q , state which has the higher Cmax,u. Returns: label corresponding to the selected item.
P
(P: 6.40 nM, Q: 1.80 nM)

[I] CCc1oc2ccccc2c1C(=O)c1cc(Br)c(O)c(Br)c1 [Benzbromarone]
[II] CCc1ccc(CCOc2ccc(CC3SC(=O)NC3=O)cc2)nc1 (stereo not shown) [Pioglitazone]
Between these two entries, I and II , state which has the higher Cmax,u. Returns: label corresponding to the selected item.
I

----------
assaySystem: CYP26B1 (Homo sapiens)
assayOverview: Spectral binding determination, CYP26B1
conditions: Ks (spectral binding constant), CYP26B1, 500 nM protein; ± standard error
readoutName: Kd (µM)
Express your answer in µM, writing the number without its unit.

Please give measured Kd of the following entry: Clc1ccccc1C(c1ccccc1)(c1ccccc1)n1ccnc1 [Clotrimazole]
4.95

----------
assaySystem: CYP26B1 (Homo sapiens)
assayOverview: Inhibition of CYP26B1-catalyzed tazarotenic acid sulfoxide formation
Type: biochemical
conditions: IC50,unb CYP26B1, IC50 corrected for unbound fraction in the assay
readoutName: pIC50
Scale note: pIC50 = -log10(concentration in M).

Please give measured pIC50 of the following entry: `Clc1ccccc1C(c1ccccc1)(c1ccccc1)n1ccnc1`
7.67
